Documented activation across a set of molecules
Molecular target: G-protein coupled receptor 151 (Homo sapiens)
Experiment: activators of human GPR151, primary screen, cell-based, PathHunter beta-arrestin, luminescence (AID 1508602);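 note: 0% = median of compound wells and 100% = cells with positive control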
Settings: PathHunter beta-arrestin GPR151 cells, at 11.2 µM, active compounds read high
The whole screen tested about 650,000 compounds, of which about 6,800 (1%) were called active. The full list was thinned out, with actives kept by preference.
# number only, unit % dropped from output

Here is how some molecules turned out for activation.
Molecule	Result Units	activation
Nc1nc(NC(=O)/C=C/c2ccc(Cl)cc2)nn1-c1ccccc1	%	0.321
CC(C)(C)CC(C)(C)c1ccc(OCC(=O)NNC(=O)c2ccccc2Cl)cc1	%	-0.581
Cc1ccc(C2=CC(c3ccccc3F)n3nnnc3N2)cc1 (centres undefined)	%	0.122

Can you look up the measured activation of O=C1NC2(CCCC2)C(=O)N1Cc1nnc(-c2ccccc2Br)o1 for me?
0.439

Requested field: activation. Item: CCCNC(=O)c1ccc(Cl)cc1[N+](=O)[O-]
1.13

---

Molecular target: G-protein coupled receptor 151 (Homo sapiens) (UniProt Q8TDV0)
Sequence (Q8TDV0 whole entry, looked up): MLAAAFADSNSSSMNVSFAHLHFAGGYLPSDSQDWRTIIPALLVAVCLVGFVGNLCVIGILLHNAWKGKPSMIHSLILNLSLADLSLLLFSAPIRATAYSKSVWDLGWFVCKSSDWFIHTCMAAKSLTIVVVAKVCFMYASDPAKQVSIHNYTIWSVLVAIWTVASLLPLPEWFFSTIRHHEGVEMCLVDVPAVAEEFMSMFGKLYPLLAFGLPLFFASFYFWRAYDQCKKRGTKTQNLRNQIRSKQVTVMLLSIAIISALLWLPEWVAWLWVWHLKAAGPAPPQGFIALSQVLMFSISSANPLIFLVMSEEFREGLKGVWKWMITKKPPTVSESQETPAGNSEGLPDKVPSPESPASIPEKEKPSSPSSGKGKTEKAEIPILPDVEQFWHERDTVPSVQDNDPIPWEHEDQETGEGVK
Test: activators of human GPR151, primary screen, cell-based, PathHunter beta-arrestin, luminescence (AID 1508602);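 note: 0% = median of compound wells and 100% = cells with positive control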
Conditions: PathHunter beta-arrestin GPR151 cells, at 11.2 µM, active compounds read high
Hit rate of the full screen: of about 650,000 compounds, about 6,800 (1%) were called active. For the sample, actives were picked, then their nearest neighbours and some compounds at random.
Measured Attribute: activation (%)
Quick note: give the figure in %, leave out the unit.

G-protein coupled receptor 151 (Homo sapiens) (UniProt Q8TDV0) / activation / COC(=O)c1oc2ccc(Br)cc2c1NC(C)=O : value?
6.57

Recorded activation for CCOC(=O)c1oc2ccc(Br)cc2c1C with G-protein coupled receptor 151 (Homo sapiens) (UniProt Q8TDV0), please?
1.27

Provide the documented activation with G-protein coupled receptor 151 (Homo sapiens) (UniProt Q8TDV0) as the system for Cc1cc(C)nc(SCC(=O)N/N=C/c2ccc(Cl)cc2Cl)n1
0.39

---

Consider the following molecules and their measured activation readings.
Molecular target: G-protein coupled receptor 151 (Homo sapiens) (UniProt Q8TDV0)
Assay: activators of human GPR151, primary screen, cell-based, PathHunter beta-arrestin, luminescence (AID 1508602);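 note: 0% = median of compound wells and 100% = cells with positive control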
Conditions: PathHunter beta-arrestin GPR151 cells, at 11.2 µM, active compounds read high
In all, about 650,000 compounds went through this assay and about 6,800 (1%) were called active. This is one part of a sample in which actives are shown more often than they occur.
Give the quantity in %, number only.

Molecule	Subject Of Test	Assay Value
OCCCNC(=S)Nc1ccccc1F	G-protein coupled receptor 151 (Homo sapiens) (UniProt Q8TDV0)	0.421
COc1ccccc1/C=C(/C#N)c1nc2ccccc2[nH]1	G-protein coupled receptor 151 (Homo sapiens) (UniProt Q8TDV0)	-0.79
CC(C)CC(=O)NC(=S)Nc1ccc(F)cc1F	G-protein coupled receptor 151 (Homo sapiens) (UniProt Q8TDV0)	2.41

What value of activation has been recorded for this entry: Cc1ccc(/C(O)=C2\C(=O)C(=O)N(c3nnc(C)s3)C2c2cccc(Oc3ccccc3)c2)cc1 (stereo unspecified)
2.53

// query activation value for entry Cc1ccc2nc(/C(C#N)=C/c3ccccc3F)[nH]c2c1
-0.301

What does the data say about its activation? Entry: CC(C)C(=O)NC(=S)Nc1ccccc1F
6.35
